These data points were gathered from ChEMBL document CHEMBL1938231.

Tested target: Tyrosine-protein kinase JAK1 (Homo sapiens, UniProt P23458)
Sequence (P23458 whole entry): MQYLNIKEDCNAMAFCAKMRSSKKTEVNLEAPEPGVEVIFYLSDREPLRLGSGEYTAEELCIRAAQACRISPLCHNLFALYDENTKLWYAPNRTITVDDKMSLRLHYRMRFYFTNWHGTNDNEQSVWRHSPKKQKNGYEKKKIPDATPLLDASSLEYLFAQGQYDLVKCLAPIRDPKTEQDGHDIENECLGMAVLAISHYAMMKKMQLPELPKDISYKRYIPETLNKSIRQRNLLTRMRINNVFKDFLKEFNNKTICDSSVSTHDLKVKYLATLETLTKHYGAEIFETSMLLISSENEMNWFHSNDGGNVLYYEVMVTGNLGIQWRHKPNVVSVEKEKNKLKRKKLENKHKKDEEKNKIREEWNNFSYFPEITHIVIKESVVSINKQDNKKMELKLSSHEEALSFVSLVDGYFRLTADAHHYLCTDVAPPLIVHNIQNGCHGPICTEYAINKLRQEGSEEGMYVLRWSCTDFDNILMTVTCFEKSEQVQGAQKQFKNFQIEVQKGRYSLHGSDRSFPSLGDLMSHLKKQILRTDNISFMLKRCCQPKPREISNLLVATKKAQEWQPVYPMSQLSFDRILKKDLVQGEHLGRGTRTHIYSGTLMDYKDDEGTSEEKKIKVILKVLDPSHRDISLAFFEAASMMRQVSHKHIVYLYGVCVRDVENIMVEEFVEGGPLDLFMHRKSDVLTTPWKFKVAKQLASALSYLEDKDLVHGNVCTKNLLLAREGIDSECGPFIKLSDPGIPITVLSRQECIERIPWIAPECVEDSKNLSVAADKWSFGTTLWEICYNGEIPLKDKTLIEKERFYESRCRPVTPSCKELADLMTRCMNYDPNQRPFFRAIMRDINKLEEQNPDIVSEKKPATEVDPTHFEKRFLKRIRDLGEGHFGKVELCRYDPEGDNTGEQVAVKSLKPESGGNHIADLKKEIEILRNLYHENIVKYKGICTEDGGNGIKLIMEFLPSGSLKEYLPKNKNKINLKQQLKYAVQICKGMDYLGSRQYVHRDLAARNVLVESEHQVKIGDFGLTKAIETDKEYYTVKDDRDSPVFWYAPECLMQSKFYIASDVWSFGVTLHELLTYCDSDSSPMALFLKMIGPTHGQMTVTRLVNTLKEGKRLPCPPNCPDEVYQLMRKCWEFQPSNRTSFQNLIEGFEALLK
Format: cell-based, BaF3
Property label: pIC50
Quick note: pIC50 values are minus log10 of concentrations in mol/L.

Ask: In one line, give reported pIC50 of the entry CC(C)(C)NS(=O)(=O)c1ccc(-c2cc3c(N)ncc(C(=O)NCCCN4CCOCC4)c3s2)cc1 .
Result: 4.90

Ask: In one line, give reported pIC50 of the entry CNC(=O)c1cnc(N)c2cc(-c3ccc(C(C)(C)C#N)cc3)sc12 .
Result: 5.94

Ask: In one line, give reported pIC50 of the entry CNC(=O)c1cnc(N)c2cc(-c3ccc(OC(F)(F)F)cc3)sc12 .
Result: 5.16

Ask: In one line, give reported pIC50 of the entry CNC(=O)c1cnc(N)c2cc(-c3ccc(N4CCOCC4)cc3)sc12 .
Result: 5.74

Ask: In one line, give reported pIC50 of the entry NC(=O)c1cnc(N)c2cc(-c3ccc(N4CCOCC4)cc3)sc12 .
Result: 6.13

Ask: In one line, give reported pIC50 of the entry CNC(=O)c1cnc(N)c2cc(-c3ccc(S(=O)(=O)NC(C)(C)C)cc3)sc12 .
Result: 5.96

Ask: In one line, give reported pIC50 of the entry COCCNC(=O)c1cnc(N)c2cc(-c3ccc(S(=O)(=O)NC(C)(C)C)cc3)sc12 .
Result: 5.18

* * *

Tested target: JAK3/JAK1 (Homo sapiens, UniProt P23458+P52333)
Sequence (P52333 whole entry): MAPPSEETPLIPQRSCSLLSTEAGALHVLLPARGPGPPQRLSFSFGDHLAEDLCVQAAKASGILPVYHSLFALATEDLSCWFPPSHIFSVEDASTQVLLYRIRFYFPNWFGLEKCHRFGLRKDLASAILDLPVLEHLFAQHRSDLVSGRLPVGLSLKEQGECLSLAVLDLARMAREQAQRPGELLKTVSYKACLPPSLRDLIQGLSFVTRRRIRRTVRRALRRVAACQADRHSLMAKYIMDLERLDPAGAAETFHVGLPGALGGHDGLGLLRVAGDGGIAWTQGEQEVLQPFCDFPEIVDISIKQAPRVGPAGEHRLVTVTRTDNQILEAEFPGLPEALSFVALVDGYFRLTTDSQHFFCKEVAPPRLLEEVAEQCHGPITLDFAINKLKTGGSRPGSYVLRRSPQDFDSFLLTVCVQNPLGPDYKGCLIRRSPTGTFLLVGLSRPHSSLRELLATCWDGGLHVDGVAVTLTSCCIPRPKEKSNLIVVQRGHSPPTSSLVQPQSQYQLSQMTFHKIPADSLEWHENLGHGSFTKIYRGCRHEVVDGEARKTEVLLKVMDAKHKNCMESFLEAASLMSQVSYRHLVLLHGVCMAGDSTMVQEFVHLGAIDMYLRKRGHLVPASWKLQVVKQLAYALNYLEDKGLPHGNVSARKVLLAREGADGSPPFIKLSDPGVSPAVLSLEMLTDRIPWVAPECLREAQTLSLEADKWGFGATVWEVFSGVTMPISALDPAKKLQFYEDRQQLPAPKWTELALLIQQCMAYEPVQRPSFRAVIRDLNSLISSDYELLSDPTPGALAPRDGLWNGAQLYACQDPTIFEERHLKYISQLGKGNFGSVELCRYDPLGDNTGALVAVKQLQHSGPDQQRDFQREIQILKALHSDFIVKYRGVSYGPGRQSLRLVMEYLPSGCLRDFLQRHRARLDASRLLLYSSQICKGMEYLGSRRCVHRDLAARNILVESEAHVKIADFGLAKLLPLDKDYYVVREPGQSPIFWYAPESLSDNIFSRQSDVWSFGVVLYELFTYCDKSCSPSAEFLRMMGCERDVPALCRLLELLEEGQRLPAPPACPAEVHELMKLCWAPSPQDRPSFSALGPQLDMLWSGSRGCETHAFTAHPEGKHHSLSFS
Sequence (P23458 whole entry): as the sequence (P23458 whole entry) above
Format: cell-based
Property label: pIC50
Quick note: pIC50 values are minus log10 of concentrations in mol/L.

Ask: In one line, give reported pIC50 of the entry CNC(=O)c1cnc(N)c2cc(-c3ccc(S(=O)(=O)NC(C)(C)C)cc3)sc12 .
Result: 6.20

Ask: In one line, give reported pIC50 of the entry CC(C)(C)NS(=O)(=O)c1ccc(-c2cc3c(N)ncc(C(=O)NCCN4CCOCC4)c3s2)cc1 .
Result: 5.14

Ask: In one line, give reported pIC50 of the entry NC(=O)c1cnc(N)c2cc(-c3ccc(N4CCOCC4)cc3)sc12 .
Result: 6.26

Ask: In one line, give reported pIC50 of the entry COCCNC(=O)c1cnc(N)c2cc(-c3ccc(S(=O)(=O)NC(C)(C)C)cc3)sc12 .
Result: 5.35

* * *

Tested target: Tyrosine-protein kinase JAK1 (Homo sapiens)
Format: cell-based, Sf9
pIC50: −log10 of the molar value.
Given measured pIC50, output rule met if it is greater than or equal to 7 and rule not met if not.

Ask: Has CC(C)(C)NS(=O)(=O)c1ccc(-c2cc3c(N)ncc(C(=O)NCCN4CCOCC4)c3s2)cc1 a recorded pIC50 greater than or equal to 7?
Result: rule not met

Ask: Has CN(C)C(=O)c1cnc(N)c2cc(-c3ccc(N4CCOCC4)cc3)sc12 a recorded pIC50 greater than or equal to 7?
Result: rule not met

Ask: Has CC(C)(C)NS(=O)(=O)c1ccc(-c2cc3c(N)ncc(C(=O)NCCN4CCCCC4)c3s2)cc1 a recorded pIC50 greater than or equal to 7?
Result: rule not met

Ask: Has CNC(=O)c1cnc(N)c2cc(-c3ccc(C(C)(C)C)cc3)sc12 a recorded pIC50 greater than or equal to 7?
Result: rule met

Ask: Has CNC(=O)c1cnc(N)c2cc(-c3ccc(C)cc3)sc12 a recorded pIC50 greater than or equal to 7?
Result: rule not met

Ask: Has CNC(=O)c1cnc(N)c2cc(-c3ccc(S(=O)(=O)NC(C)(C)C)cc3)sc12 a recorded pIC50 greater than or equal to 7?
Result: rule met

Ask: Has CC(C)(C)NC(=O)c1cnc(N)c2cc(-c3ccc(N4CCOCC4)cc3)sc12 a recorded pIC50 greater than or equal to 7?
Result: rule not met

Ask: Has CNC(=O)c1cnc(N)c2cc(-c3ccc(N4CCOCC4)cc3)sc12 a recorded pIC50 greater than or equal to 7?
Result: rule not met

Ask: Has Nc1ncc(C(=O)Nc2ccccc2)c2sc(-c3ccc(N4CCOCC4)cc3)cc12 a recorded pIC50 greater than or equal to 7?
Result: rule not met
